Sourced from patent US6903218B2

Below: a set of entries, each annotated with reported melting point.

Examples from the recorded data:
CC(C)c1ccc(NS(=O)(=O)c2ccc3c(c2)CCC(CNC[C@H](O)c2cccnc2)O3)cc1 (stereo in doubt) (hydrate or solvate); 104 to 106 °C
Nc1ccc([C@@H](O)CNC[C@@H]2CCc3cc(S(=O)(=O)Nc4ccc(-n5nnn(CCCC6CCCC6)c5=O)cc4)ccc3O2)cn1; 99.3 to 99.7 °C

For the molecule Nc1ccc([C@@H](O)CNCC2CCc3cc(S(=O)(=O)Nc4ccc(Cl)cc4)ccc3O2)cn1 (stereo in doubt) , what melting point is on record?
95 °C (dec.)

Then what about the molecule Nc1ccc([C@@H](O)CNC[C@H]2CCc3cc(NS(=O)(=O)c4ccc(-n5nnn(CCCC6CCCCC6)c5=O)cc4)ccc3O2)cn1 ?
94 to 95 °C

Then what about the molecule O=c1n(CCCC2CCCC2)nnn1-c1ccc(NS(=O)(=O)c2ccc3c(c2)CCC(CNC[C@H](O)c2cccnc2)O3)cc1 (stereo partly shown) (hydrate or solvate) ?
93 to 95 °C

Then what about the molecule O=c1n(CCCC2CCCC2)ccn1-c1ccc(NS(=O)(=O)c2ccc3c(c2)CCC(CNC[C@H](O)c2cccnc2)O3)cc1 (stereo in doubt) ?
90 to 92 °C

Then what about the molecule O=c1n(CCCC2CCCC2)nnn1-c1ccc(NS(=O)(=O)c2ccc3c(c2)CCC(CN(C[C@H](O)c2cccc(Cl)c2)C[C@H](O)c2cccc(Cl)c2)O3)cc1 (stereo partly shown) (hydrate or solvate) ?
110 to 115 °C (dec.)
